# Tested on: metabolism of retinoic acid in human breast cancer cells
# assay-protocol: Inhibition of retinoic acid (RA) metabolism (Example C.1)
# Format: cell-based
# applied-conditions: MCF-7 human breast cancer cells, 3H-RA as substrate; concentration needed to reduce the amount of metabolites to 50% of the control
observation-type: IC50 (nM)

Look over these answered cases.
CCC(c1ccc(NC(=O)Cc2ccc(Cl)cc2)cc1)(C(C)C)n1ccnc1 (racemic)	4.35
CC(C)C(c1ccc(NC(=O)CC2(CC(=O)O)CCCC2)cc1)n1ccnc1 (racemic)	2.71
CCC(CC)C(c1ccc(NC(=O)Cc2ccc(C)cc2)cc1)n1cncn1 (racemic)	0.379
CC(C)C(c1ccc(NC(=O)Nc2ccc(Cl)cc2)cc1)n1ccnc1 (racemic)	42.1
CC(C)C(c1ccc(NC(=O)Cc2ccccc2Cl)cc1)n1ccnc1 (stereo not shown)	1.56

1 = CC(=Cc1ccccc1)C(=O)Nc1ccc(C(C(C)C)n2ccnc2)cc1 (single isomer, unassigned)
2 = CC(C)C(c1ccc(NC(=O)C2CC2c2ccccc2)cc1)n1ccnc1.O=C(O)C(=O)O (mixture of isomers)
3 = CCC(CC)C(c1ccc(NC(=O)COc2ccccc2OC)cc1)n1cncn1 (racemic)
Asked: List from greatest to least IC50. A ranking is expressed here by listing the labels in the requested order.
Given back: 1, 2, 3
(1: 17.7 nM, 2: 4.58 nM, 3: 0.0365 nM)

A = C/C(=C\c1ccncc1)C(=O)Nc1ccc(C(C(C)C)n2ccnc2)cc1 (stereo not shown)
B = CCC(CC)C(c1ccc(NC(=O)Cc2cc(OC)c(OC)c(OC)c2)cc1)n1cncn1 (racemic)
Asked: Recorded IC50 values differ for A and B ; which one is higher? Pick one and reply with its label.
Given back: A

1 = CCC(=Cc1ccccc1)C(=O)Nc1ccc(C(C(C)C)n2ccnc2)cc1 (racemic)
2 = CC(C)C(c1ccc(NC(=O)CNC(=O)OCc2ccccc2)cc1)n1ccnc1 (racemic)
Asked: Please choose the item with the lower IC50 value from this pair: 1 and 2 Pick one and reply with its label.
Given back: 2
(2: 7.48 nM, 1: 25 nM)

Recorded values, source patent US7179825B2.
